The measured values listed here are drawn from patent EP0327744A1.

assayed_system: V₁(pressor)-receptor (Rattus norvegicus, UniProt P30560)
Construct: crude membrane preparation of rat liver (V₁ receptor); from tissue; host or cells: rat liver, crude membrane preparation
Sequence (P30560 whole entry): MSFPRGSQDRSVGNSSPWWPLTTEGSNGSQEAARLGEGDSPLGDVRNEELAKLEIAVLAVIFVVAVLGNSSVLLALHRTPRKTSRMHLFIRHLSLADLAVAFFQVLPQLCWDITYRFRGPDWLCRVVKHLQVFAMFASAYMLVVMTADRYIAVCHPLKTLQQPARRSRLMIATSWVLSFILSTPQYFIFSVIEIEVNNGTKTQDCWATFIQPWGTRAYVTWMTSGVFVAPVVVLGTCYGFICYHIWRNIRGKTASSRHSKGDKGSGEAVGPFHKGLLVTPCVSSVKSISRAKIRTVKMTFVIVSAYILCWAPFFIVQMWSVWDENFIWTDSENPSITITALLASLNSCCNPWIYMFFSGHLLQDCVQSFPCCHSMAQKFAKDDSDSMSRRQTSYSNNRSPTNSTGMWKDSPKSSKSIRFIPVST
experimental_protocol: [³H]Arginine Vasopressin Binding Assay, liver membranes (V₁)
condition_set: IC₅₀ Values ³H-Arg⁸-Vasopressin Binding Liver (V₁), rat liver membranes; value in µg/ml (exact MW not known)
Text: The table summarizes the in vitro potencies of the various components to compete for ³H-vasopressin binding at two proposed vasopressin receptor subtypes (V₁, V₂), as well as to inhibit vasopressin-stimulated adenylate cyclase activity, a further measure of vasopressin antagonism. The [³H]Arginine Vasopressin Binding Assay is an in vitro procedure which was adapted from the method of Guillon et al., Eur. J. Pharmacol. 85: 219-304 (1982). […]
measurement_kind: IC50 (µM)
Expressed in µM, but write only the number.

Ask | Would you mind telling me what IC50 value was observed for CC(C)CC1C(=O)N2NCCCC2C(=O)N2NCCCC2C(=O)N(C)C(Cc2ccccc2)C(=O)N2CCCC2C(=O)NC(Cc2ccccc2)C(=O)N1O (stereo not shown) [Component C] ?
Reply | 5.53

###

assayed_system: V₂(antidiuretic)-receptor (Rattus norvegicus, UniProt Q00788)
Construct: crude membrane preparation of rat liver (V₁ receptor) or kidney medulla (V₂ receptor); from tissue; host or cells: rat kidney medulla, crude membrane preparation
Sequence (Q00788 whole entry): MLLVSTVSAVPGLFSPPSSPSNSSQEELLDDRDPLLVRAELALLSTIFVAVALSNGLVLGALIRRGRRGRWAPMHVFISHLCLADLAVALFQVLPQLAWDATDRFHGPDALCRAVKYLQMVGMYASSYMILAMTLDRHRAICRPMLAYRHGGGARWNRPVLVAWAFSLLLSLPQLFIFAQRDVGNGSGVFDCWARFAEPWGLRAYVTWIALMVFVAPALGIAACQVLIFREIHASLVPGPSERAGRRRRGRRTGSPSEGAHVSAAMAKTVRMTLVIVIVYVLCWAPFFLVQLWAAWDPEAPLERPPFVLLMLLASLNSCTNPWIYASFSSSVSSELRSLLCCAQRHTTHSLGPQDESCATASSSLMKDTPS
experimental_protocol: [³H]Arginine Vasopressin Binding Assay, kidney medulla membranes (V₂)
condition_set: IC₅₀ Values ³H-Arg⁸-Vasopressin Binding Kidney (V₂), rat kidney medulla membranes; value in µg/ml (exact MW not known)
measurement_kind: IC50 (µM)
Your answer is read as µM, so omit the unit and give the number.

Ask | I'd like to know its IC50. The compound in question is CC(C)CC1C(=O)N2NCCCC2C(=O)N2NCCCC2C(=O)N(C)C(Cc2ccccc2)C(=O)N2CCCC2C(=O)NC(Cc2ccccc2)C(=O)N1O (stereo not shown) [Component C]
Reply | 11.9

###

assayed_system: Vasopressin-stimulated adenylate cyclase in kidney medulla (V₂) (Rattus norvegicus)
Construct: Vasopressin-stimulated adenylate cyclase in kidney medulla, therefore, is used as a functional assay; from tissue
Sequence (Q00788 whole entry): as above
experimental_protocol: Vasopressin-stimulated adenylate cyclase functional assay in kidney medulla (V₂ antagonism)
Format: biochemical
condition_set: read-out: IC₅₀ Values AVP-stimulated Ad. Cyclase Kidney (V₂); kidney medulla; value in µg/ml (exact MW not known)
measurement_kind: IC50 (µM)
Your answer should be a plain number; it is taken to be in µM.

Ask | Which IC50 value belongs to CC(C)CC1C(=O)N2NCCCC2C(=O)N2NCCCC2C(=O)N(C)C(Cc2ccccc2)C(=O)N2CCCC2C(=O)NC(Cc2ccccc2)C(=O)N1O (stereo not shown) [Component C] ?
Reply | 12.1

###

assayed_system: V₂(antidiuretic)-receptor (Rattus norvegicus)
Construct: crude membrane preparation of rat liver (V₁ receptor) or kidney medulla (V₂ receptor); from tissue; host or cells: rat kidney medulla, crude membrane preparation
experimental_protocol: [³H]Arginine Vasopressin Binding Assay, kidney medulla membranes (V₂)
condition_set: IC₅₀ Values ³H-Arg⁸-Vasopressin Binding Kidney (V₂), rat kidney medulla membranes; mean ± standard error
measurement_kind: IC50 (µM)
Answer format: numeric, µM implied, no suffix.

CC(C)C1C(=O)N2NCCCC2C(=O)N2NCCCC2C(=O)N(C)C(Cc2ccccc2)C(=O)N2CCCC2C(=O)NC(Cc2ccccc2)C(=O)N1O (centres unmarked)    7.9

Please examine the following record next.
Ask | Entry under review: CC(C)CC1C(=O)N2NCCCC2C(=O)N2NCCCC2C(=O)N(C)C(Cc2ccccc2)C(=O)N2CCCC2C(=O)NC(C(C)C)C(=O)N1O (centres unmarked) . Reported IC50?
Reply | 35.3
